Entries and their MIC
Test system: Klebsiella pneumoniae
Assay: In vitro antibacterial activity against Klebsiella pneumoniae (A9664)
Type: functional
// return numeric value only (unit: µg/mL, not printed)

[
  {
    "chemSmiles": "C[C@H]1C(SCc2ccccn2)=C(C(=O)O)N2C(=O)[C@H](/C=C/CNc3ccccc3)[C@@H]12",
    "MIC, µg/mL": 64
  },
  {
    "chemSmiles": "C[C@@H](N)[C@H]1C(=O)N2C(C(=O)O)=C(SCc3cccnc3)[C@H](C)[C@H]12",
    "MIC, µg/mL": 0.13
  },
  {
    "chemSmiles": "C[C@H]1C(SCc2cccnc2)=C(C(=O)O)N2C(=O)[C@H](CN)[C@@H]12",
    "MIC, µg/mL": 0.03
  },
  {
    "chemSmiles": "C[C@H]1C(SCc2ccccn2)=C(C(=O)O)N2C(=O)[C@H](/C=C/CN=[N+]=[N-])[C@@H]12",
    "MIC, µg/mL": 16
  },
  {
    "chemSmiles": "C[C@H]1C(SCc2ccccn2)=C(C(=O)O)N2C(=O)[C@H](/C=C/CO)[C@@H]12",
    "MIC, µg/mL": 16
  }
]

Could you now consider this next compound?
Klebsiella pneumoniae assay, compound C[C@@H](O)[C@H]1C(=O)N2C(C(=O)O)=C(SCc3cccnc3)[C@H](C)[C@H]12 , recorded MIC = 0.13

----------
Assay: Half-life by UV spectrophotometry
Format: ADME
Details: read-out: Stability (converted)
Kindly return met if reported half-life is no lower than 20 h; return not met if it is lower.

Consider the worked cases shown below.
[
  {
    "molecule": "C[C@@H](O)[C@H]1C(=O)N2C(C(=O)O)=C(SCc3cccnc3)[C@H](C)[C@H]12",
    "cat": "met"
  },
  {
    "molecule": "C[C@H]1C(SCc2ccccn2)=C(C(=O)O)N2C(=O)[C@H](/C=C/CN=[N+]=[N-])[C@@H]12",
    "cat": "met"
  },
  {
    "molecule": "C[C@@H](N)[C@H]1C(=O)N2C(C(=O)O)=C(SCc3cccnc3)[C@H](C)[C@H]12",
    "cat": "not met"
  },
  {
    "molecule": "C=CC(O)[C@H]1C(=O)N2C(C(=O)O)=C(SCc3ccccn3)[C@H](C)[C@H]12 (stereo partly drawn)",
    "cat": "met"
  }
]

[in] hey, is half-life for this one >= 20 h? C[C@H]1C(SCc2ccccn2)=C(C(=O)O)N2C(=O)[C@H](/C=C/CNc3ccccc3)[C@@H]12
[out] met

[in] hey, is half-life for this one >= 20 h? C[C@H]1C(SCc2cccnc2)=C(C(=O)O)N2C(=O)[C@H](CN)[C@@H]12
[out] not met

[in] hey, is half-life for this one >= 20 h? C[C@H]1C(SCc2ccccn2)=C(C(=O)O)N2C(=O)[C@H](/C=C/CO)[C@@H]12
[out] met

[in] hey, is half-life for this one >= 20 h? C[C@H]1C(SCc2cccnc2)=C(C(=O)O)N2C(=O)[C@H](CO)[C@@H]12
[out] met
